target: NR1/NR2A (Rattus norvegicus, UniProt P35439+Q00959); test: Inhibition of NMDA receptor NR1/NR2A activity in Xenopus laevis oocytes, two-electrode voltage clamp method
Sequence (Q00959 23-1464, other chains not shown): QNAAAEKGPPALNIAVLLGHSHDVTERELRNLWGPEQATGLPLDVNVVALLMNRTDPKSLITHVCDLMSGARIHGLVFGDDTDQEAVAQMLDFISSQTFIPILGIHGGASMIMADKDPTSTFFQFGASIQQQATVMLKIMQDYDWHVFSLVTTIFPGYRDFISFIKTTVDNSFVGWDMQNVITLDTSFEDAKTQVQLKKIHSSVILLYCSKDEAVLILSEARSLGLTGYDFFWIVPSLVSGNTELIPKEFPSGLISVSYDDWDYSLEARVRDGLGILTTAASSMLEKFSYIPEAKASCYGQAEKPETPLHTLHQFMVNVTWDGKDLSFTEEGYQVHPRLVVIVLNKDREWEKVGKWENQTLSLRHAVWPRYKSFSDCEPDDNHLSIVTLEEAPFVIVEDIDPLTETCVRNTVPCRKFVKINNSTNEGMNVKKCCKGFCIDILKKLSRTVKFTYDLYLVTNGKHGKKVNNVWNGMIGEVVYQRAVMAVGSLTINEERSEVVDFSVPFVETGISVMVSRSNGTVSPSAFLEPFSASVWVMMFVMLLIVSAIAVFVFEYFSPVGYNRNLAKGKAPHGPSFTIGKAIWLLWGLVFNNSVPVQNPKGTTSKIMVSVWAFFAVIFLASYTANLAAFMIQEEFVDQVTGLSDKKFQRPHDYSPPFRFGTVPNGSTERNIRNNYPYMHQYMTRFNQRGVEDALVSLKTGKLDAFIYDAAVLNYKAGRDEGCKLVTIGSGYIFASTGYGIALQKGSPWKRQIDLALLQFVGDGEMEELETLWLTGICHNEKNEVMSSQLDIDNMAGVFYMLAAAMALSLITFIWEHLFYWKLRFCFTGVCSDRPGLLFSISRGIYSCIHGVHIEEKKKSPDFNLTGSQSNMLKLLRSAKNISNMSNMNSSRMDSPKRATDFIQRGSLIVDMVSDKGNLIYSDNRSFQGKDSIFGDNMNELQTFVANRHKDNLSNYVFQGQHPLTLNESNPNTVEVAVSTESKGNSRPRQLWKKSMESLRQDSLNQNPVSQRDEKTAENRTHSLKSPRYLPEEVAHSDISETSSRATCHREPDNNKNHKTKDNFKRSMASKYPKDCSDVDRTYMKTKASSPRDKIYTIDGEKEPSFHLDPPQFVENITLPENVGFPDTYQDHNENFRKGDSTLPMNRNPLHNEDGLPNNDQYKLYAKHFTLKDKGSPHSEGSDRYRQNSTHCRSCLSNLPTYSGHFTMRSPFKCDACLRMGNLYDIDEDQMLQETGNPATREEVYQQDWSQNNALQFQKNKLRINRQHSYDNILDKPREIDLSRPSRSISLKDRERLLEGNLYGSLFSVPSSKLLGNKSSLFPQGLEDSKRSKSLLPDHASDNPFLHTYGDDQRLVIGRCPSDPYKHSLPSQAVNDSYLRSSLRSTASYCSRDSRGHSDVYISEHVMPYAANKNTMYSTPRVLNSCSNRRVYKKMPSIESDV
pIC50: −log10 of the molar value.
value_kind: pIC50

1. N=C(NCCc1ccc(Cl)cc1)NC(=N)NNC(=O)c1nc(Cl)c(N)nc1N
2. N=C(N)NC(=O)c1nc(Cl)c(N)nc1N [Amiloride, reference compound]
Of 1 and 2 , which one carries the higher reported pIC50? Answer format: the label of the selected item.
1
(1: 6.64, 2: 3.93)

* * *

Biological target: ASIC1a (Homo sapiens)
Sequence (P78348 1-528): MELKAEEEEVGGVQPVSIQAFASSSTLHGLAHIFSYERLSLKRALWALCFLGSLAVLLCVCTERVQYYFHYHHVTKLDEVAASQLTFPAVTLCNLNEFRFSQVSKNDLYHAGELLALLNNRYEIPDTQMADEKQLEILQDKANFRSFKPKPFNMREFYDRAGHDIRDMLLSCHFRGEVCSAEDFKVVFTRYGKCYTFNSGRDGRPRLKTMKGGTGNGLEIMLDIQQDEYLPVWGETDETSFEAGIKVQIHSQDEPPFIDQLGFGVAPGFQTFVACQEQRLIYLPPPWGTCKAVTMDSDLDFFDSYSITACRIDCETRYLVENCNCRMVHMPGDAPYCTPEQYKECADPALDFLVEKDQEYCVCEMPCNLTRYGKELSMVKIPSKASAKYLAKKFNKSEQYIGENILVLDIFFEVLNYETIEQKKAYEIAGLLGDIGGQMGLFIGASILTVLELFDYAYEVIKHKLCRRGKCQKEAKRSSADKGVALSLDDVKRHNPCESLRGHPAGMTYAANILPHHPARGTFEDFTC
Assay: Inhibition of ASIC1a current in ASIC1a-expressing Xenopus laevis oocytes, two-electrode voltage clamp method
Details: current induced by shifting pH from 7.5 to 6.0; four to five oocytes
pIC50: −log10 of the molar value.
value_kind: pIC50

N=C(NCCc1ccccc1)NC(=N)NNC(=O)c1nc(Cl)c(N)nc1N	5.33

a. N=C(NCCc1ccc(Cl)cc1)NC(=N)NNC(=O)c1nc(Cl)c(N)nc1N
b. N=C(NCCc1ccc(Cl)c(Cl)c1)NC(=N)NNC(=O)c1nc(Cl)c(N)nc1N
Compare reported pIC50 values for a and b . Which is lower? Answer format: the label of the selected item.
a
(a: 6.31, b: 6.68)
